target: Muscarinic acetylcholine receptor M1 (Homo sapiens); test: Cholinergic receptor muscarinic 1 (CHRM1) small molecule antagonists, cell-based qHTS assay (AID 1963588); conditions: CHRM1-CHO antagonist mode, calcium flux fluorescence; series mostly up to 61.5 µM; also: % is scaled to controls: 0 for no effect and ±100 for the full control effect; nearly all actives have a fitted effect of over 40% in size
Records with an inconclusive call do not appear. Activity calls are given as the source filed them. Calls follow the shape of the full dose curve.
Return exactly one item of active, inactive

Asked: Which outcome did this test record for the compound O=C1Cc2ccccc2C1 ?
Given back: inactive

Asked: Any idea what this test logged for COc1cc(C=C2CCC/C(=C\c3ccc(O)c(OC)c3)C2=O)ccc1O ?
Given back: inactive

----------
Hi there, I'd appreciate the recorded activity change, negative = inhibition for every entry that follows.
target: Beta-2 adrenergic receptor (Homo sapiens) (UniProt P07550); assay: Adrenergic beta2 receptor (ADRB2) small molecule antagonists, cell-based qHTS assay (AID 1963592); details: CHO-ADRB2 cells, isoproterenol-stimulated cAMP HTRF ratio, 0.5 h; series mostly up to 92.4 µM; also: % is scaled to controls: 0 for no effect and ±100 for the full control effect; nearly all actives have a fitted effect of over 50% in size
Sequence (P07550 whole entry, looked up): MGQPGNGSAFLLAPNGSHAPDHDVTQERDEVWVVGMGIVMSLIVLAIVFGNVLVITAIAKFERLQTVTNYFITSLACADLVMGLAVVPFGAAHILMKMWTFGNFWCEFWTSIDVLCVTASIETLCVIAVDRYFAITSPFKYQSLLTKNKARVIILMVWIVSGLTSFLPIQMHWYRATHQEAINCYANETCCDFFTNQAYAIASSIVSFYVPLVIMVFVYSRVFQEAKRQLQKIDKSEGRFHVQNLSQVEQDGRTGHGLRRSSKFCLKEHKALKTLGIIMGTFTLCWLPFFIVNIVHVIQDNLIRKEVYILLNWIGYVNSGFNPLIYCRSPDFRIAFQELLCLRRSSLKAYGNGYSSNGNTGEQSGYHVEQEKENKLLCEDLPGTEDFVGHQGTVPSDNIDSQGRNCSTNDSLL
Results filed as inconclusive are left out. Active and inactive are the calls of the source. The call rests on the fitted dose curve.

Worked cases, answers included:
O=CO	1.71% [at 8.39 µM] (inactive)
C[C@@H]1CN(c2c(F)c(F)c3c(=O)c(C(=O)O)cn(C4CC4)c3c2F)C[C@H](C)N1	-4.7% [at 19 µM] (inactive)
O=S(=O)(O)c1cc(S(=O)(=O)O)c2ccc3c(S(=O)(=O)O)cc(S(=O)(=O)O)c4ccc1c2c43	1.38% [at 19 µM] (inactive)
C=CCCCCCCCCCCCCCC	8.54% [at 19 µM] (inactive)
C1CCCCCCCCCCC1	0.327% [at 19 µM] (inactive)
CN(C)C(=O)NC1(c2ccccc2)CCN(CCC[C@]2(c3ccc(Cl)c(Cl)c3)CCCN(C(=O)c3ccccc3)C2)CC1	9.65% [at 19 µM] (inactive)
CCCC(=O)O[C@]1(C(=O)COC(=O)CC)CC[C@H]2[C@@H]3CCC4=CC(=O)CC[C@]4(C)[C@H]3[C@@H](O)C[C@@]21C	0.289% [at 19 µM] (inactive)
Cn1ccc2cc3c(cc21)CCN3C(=O)Nc1cccnc1	0.687% [at 19 µM] (inactive)
O=C(O)O	-4.62% [at 8.39 µM] (inactive)
CC(CSC(=O)c1ccccc1)C(=O)N1C[C@@H](Sc2ccccc2)C[C@H]1C(=O)O (stereo not given in full)	10.2% [at 19 µM] (inactive)

Batch: activity change, negative = inhibition for all items listed.
1. CCCCCCCCCCCCCCCCCCCl
2. CCCCCCCCCCCCCCCCCBr

Given back:
["8.82% [at 8.39 µM] (inactive)", "0.719% [at 19 µM] (inactive)"]

----------
target: 5-hydroxytryptamine receptor 2A (Homo sapiens) (UniProt P28223); experiment: 5-hydroxytryptamine receptor 2A (HTR2A) small molecule antagonists, cell-based qHTS assay (AID 1963586); conditions: HTR2A-CHO cells, DOI-induced calcium flux, fluorescence; series mostly up to 61.5 µM; also: nearly all actives have a fitted effect of over 45% in size
Sequence (P28223 whole entry, looked up): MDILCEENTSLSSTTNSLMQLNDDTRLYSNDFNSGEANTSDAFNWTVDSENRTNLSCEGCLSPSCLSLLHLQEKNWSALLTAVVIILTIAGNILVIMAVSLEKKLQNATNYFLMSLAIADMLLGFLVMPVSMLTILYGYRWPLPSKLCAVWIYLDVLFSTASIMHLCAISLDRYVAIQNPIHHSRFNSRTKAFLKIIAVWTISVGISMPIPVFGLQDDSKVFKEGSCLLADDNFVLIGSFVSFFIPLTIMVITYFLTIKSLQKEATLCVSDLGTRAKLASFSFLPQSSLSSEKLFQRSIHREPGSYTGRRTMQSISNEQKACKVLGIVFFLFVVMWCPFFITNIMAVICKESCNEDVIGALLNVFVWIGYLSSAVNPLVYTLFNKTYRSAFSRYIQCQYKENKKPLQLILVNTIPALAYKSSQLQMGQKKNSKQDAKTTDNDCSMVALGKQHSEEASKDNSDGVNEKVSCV
Results filed as inconclusive are left out. The source made the active and inactive calls. The call rests on the fitted dose curve.
Give one outcome, nothing more. List: active, inactive

Asked: Just curious, what result did N=C(N)N get here?
Given back: inactive

Asked: Entry CC/C=C1/OC(=O)c2ccccc21 : call = ?
Given back: inactive

Asked: Assay result, entry CC(Oc1c(Cl)cccc1Cl)C1=NCCN1 (centres undefined) — outcome?
Given back: inactive

Asked: Hello, I am checking results. What call was entered for CCCCCCCCCCCCCCCS(=O)(=O)Oc1ccccc1 ?
Given back: inactive

Asked: // param item: CC(C)COCC(CN(Cc1ccccc1)c1ccccc1)N1CCCC1 (centres undefined) ; yields the recorded call
Given back: active
